Target: Torsin-1A (Homo sapiens) (UniProt O14656)
Sequence (O14656 whole entry, looked up): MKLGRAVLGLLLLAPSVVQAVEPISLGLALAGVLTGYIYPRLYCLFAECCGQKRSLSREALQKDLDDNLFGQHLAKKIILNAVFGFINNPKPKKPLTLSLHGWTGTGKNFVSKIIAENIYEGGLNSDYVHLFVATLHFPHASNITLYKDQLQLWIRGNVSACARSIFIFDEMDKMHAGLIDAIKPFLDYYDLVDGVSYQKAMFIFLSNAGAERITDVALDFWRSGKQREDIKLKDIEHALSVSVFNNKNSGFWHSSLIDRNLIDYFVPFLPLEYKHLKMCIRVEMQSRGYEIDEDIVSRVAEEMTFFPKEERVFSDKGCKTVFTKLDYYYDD
Assay: TOR1A wild-type binding on microarray – cell lysate, small-molecule microarray, lysate, 635/667 nm, primary screen (AID 1149)
Settings: COS7 hTOR1A-WT lysate, 635 nm fluorescence, higher = more signal
Note to self: values exactly at -0.1 are criterion met. So composite z-score at or above -0.1 is criterion met, below is criterion not met.

// query Hi, just wondering whether COCCn1c(C(=O)N2CCCC2)cc2c1C[C@H]1CN(C(=O)c3ccccc3)[C@@](Cc3ccc(OC)cc3)(C(=O)OC)[C@@H]21 shows composite z-score of -0.1 or higher.
// result criterion not met

// query Hi, just wondering whether C#C[C@H]1Oc2ccccc2S(=O)(=O)N2CCC[C@@H]12 shows composite z-score of -0.1 or higher.
// result criterion met

// query Hi, just wondering whether CN1C(=O)C2C(C1=O)C1C=C(c3ccc(CO)cc3)C2C(C2CC2)N1Cc1sc2ccccc2c1Cl (stereo not drawn) shows composite z-score of -0.1 or higher.
// result criterion met

// query Hi, just wondering whether COC(=O)c1c2oc(c1C(=O)OC)C(=O)N[C@H](Cc1ccccc1)Cn1nncc1C1(CCCCC1)NC(=O)N[C@H](CO)CC2 shows composite z-score of -0.1 or higher.
// result criterion met

// query Hi, just wondering whether CCOC(=O)C=Cc1cccc(OC)c1O shows composite z-score of -0.1 or higher.
// result criterion not met

// query Hi, just wondering whether COc1ccc([Si](C)(C)[C@@H]2[C@@H](CCn3cc([C@H](O)c4ccccc4)nn3)O[C@]3(C(=O)N(C)c4ccccc43)[C@H]2C)cc1 shows composite z-score of -0.1 or higher.
// result criterion not met

// query Hi, just wondering whether COc1ccc(CCNC(=O)[C@@]2(C)c3ccccc3C(=O)N(Cc3ccccc3)[C@H]2c2ccc(CO)cc2)cc1 shows composite z-score of -0.1 or higher.
// result criterion met

// query Hi, just wondering whether [N-]=[N+]=Nc1ccccc1[C@@H]1OC(c2ccc(OCCCO)cc2)=N[C@]1(CCS(=O)(=O)c1ccccc1)C(=O)O shows composite z-score of -0.1 or higher.
// result criterion met
